Biological target: HLA-DR DRB1*0301 (human)
Assay: competition assay, purified HLA, inhibition of 125I-labelled reference peptide
pIC50: −log10 of the molar value.
The entries below are paired with their reported pIC50.
QUANTITY: pIC50

[[record]]
binder = "GSYFFGDNAEEYDN (modifications not checked) [Flu.NP.488]"
quantity = "pIC50"
recorded_value = 6.86

[[record]]
binder = "QKAMMDQVRESRNPG (modifications not checked) [Flu.NP.238]"
quantity = "pIC50"
recorded_value = 6.35

[[record]]
binder = "LILYDKEEIRRIWRQ (modifications not checked) [Flu.NP.111]"
quantity = "pIC50"
recorded_value = 7.66

